The entries that follow carry IC50 values tested on 4-aminobutyrate aminotransferase, mitochondrial (Homo sapiens, UniProt P80404), drawn from several published reports.
Sequence (P80404 whole entry): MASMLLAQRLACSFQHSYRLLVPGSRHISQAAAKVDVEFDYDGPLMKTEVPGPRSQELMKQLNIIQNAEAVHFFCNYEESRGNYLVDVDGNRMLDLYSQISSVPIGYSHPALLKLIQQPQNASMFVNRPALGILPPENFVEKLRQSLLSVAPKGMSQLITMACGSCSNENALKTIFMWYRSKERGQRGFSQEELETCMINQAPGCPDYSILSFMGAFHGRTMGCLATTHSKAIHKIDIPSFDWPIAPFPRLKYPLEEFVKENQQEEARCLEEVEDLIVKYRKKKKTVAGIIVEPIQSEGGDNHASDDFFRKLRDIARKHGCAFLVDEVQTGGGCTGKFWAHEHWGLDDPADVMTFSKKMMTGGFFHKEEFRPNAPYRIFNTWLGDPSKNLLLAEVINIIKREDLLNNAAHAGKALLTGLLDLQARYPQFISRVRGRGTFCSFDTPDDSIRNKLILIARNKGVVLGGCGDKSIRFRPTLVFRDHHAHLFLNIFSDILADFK

Nc1cccc(CC(=O)O)c1	> 5000 µM
NCc1cccc(C(=O)O)c1	> 5000 µM
C=CC(=O)c1ccc(O)cc1	5.48 µM
COc1cc(/C=N/O)ccc1O	> 1000 µM
O=c1cc(-c2ccccc2)oc2cc(O)c(O)c(O)c12	12800 µM

// for each compound in input: emit IC50
1. NCc1ccccc1C(=O)O
2. Nc1ccc(C(=O)O)cc1
3. NCc1cccc(CC(=O)O)c1
4. O=Cc1ccc(O)c([N+](=O)[O-])c1
5. O=C(O)c1ccc(O)cc1
6. O/N=C/c1ccc(O)cc1
7. CCC(=O)c1ccc(O)cc1

Result:
1. > 5000 µM
2. > 1000 µM
3. > 5000 µM
4. 15.5 µM
5. > 1000 µM
6. > 1000 µM
7. 176 µM
